# targetOrTestSystem: Sigma non-opioid intracellular receptor 1 (Cavia porcellus, UniProt Q60492)
# Sequence (Q60492 whole entry): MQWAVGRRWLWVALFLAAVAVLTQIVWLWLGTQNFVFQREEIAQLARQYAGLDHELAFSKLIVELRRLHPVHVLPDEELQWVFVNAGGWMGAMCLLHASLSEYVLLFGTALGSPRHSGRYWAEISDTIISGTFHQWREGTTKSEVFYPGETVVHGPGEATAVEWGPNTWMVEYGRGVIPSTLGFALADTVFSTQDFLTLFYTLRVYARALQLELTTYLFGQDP
# procedureDetails: Displacement of [3H](+)-pentazocine from sigma 1 receptor in guinea pig brain membrane
# Type: cell membranes
pKi: −log10 of the molar value.
endpointLabel: pKi

Please review the entries below; each comes with its answer.
Inquiry: Report pKi for COc1ccc(CCNCCCCNC(=O)c2cc(Br)cc(OC)c2OC)cc1OC please.
Reply text: 6.06

Inquiry: Report pKi for COc1cc(Br)cc(C(=O)NCCCCN2CCc3cc4c(cc3C2)OCO4)c1OC please.
Reply text: 7.09

(A) COc1cc(Br)cc(C(=O)NCCCCN2CCc3cc4c(cc3C2)OCCO4)c1OC
(B) COc1cc(Br)cc(C(=O)NCCCCN2CCc3cc4c(cc3C2)OCCCO4)c1OC
Inquiry: // compare measured pKi between A and B ; output the lower one Reply with the label of the item you choose.
Reply text: B
(B: 5.84, A: 6.47)

---

# procedureDetails: Displacement of [3H]DTG from sigma 2 receptor in guinea pig brain membrane
# Type: cell membranes, Cavia porcellus
endpointLabel: Ki (µM)

Inquiry: Report Ki for COc1cc2c(cc1OC)CN(CCCCNC(=O)c1cc(Br)cc(OC)c1OC)CC2 please.
Reply text: 0.0027

Inquiry: Report Ki for COc1cc(Br)cc(C(=O)NCCCCN2CCc3cc4c(cc3C2)OCCO4)c1OC please.
Reply text: 0.0217

Inquiry: Report Ki for COc1cc(Br)cc(C(=O)NCCCCN2CCc3cc4c(cc3C2)OCO4)c1OC please.
Reply text: 0.0207

(I) COc1ccc(CCNCCCCNC(=O)c2cc(Br)cc(OC)c2OC)cc1OC
(II) COc1cc(Br)cc(C(=O)NCCCCN2CCc3cc4c(cc3C2)OCCCO4)c1OC
Inquiry: I'd appreciate it if you could identify which of I and II has the greater Ki. Reply with the label of the item you choose.
Reply text: I

---

# Species: Cavia porcellus
# procedureDetails: Selectivity for sigma 2 receptor over sigma 1 receptor in guinea pig brain membrane
# Assay type: cell membranes
endpointLabel: Ratio Ki

(a) COc1cc(Br)cc(C(=O)NCCCCN2CCc3cc4c(cc3C2)OCCCO4)c1OC
(b) COc1cc(Br)cc(C(=O)NCCCCN2CCc3cc4c(cc3C2)OCO4)c1OC
(c) COc1ccc(CCNCCCCNC(=O)c2cc(Br)cc(OC)c2OC)cc1OC
(d) COc1cc(Br)cc(C(=O)NCCCCN2CCc3cc4c(cc3C2)OCCO4)c1OC
Inquiry: In a descending ranking, list each entry from above by its Ratio Ki, from the largest value down to the smallest. Record the ranking as a list of labels in the requested order.
Reply text: a, d, b, c
(a: 44, d: 16, b: 4, c: 0.2)

---

# targetOrTestSystem: Sigma non-opioid intracellular receptor 1 (Cavia porcellus)
# procedureDetails: Displacement of [3H](+)-pentazocine from sigma 1 receptor in guinea pig brain membrane at pH 8.0 at 25 degC
endpointLabel: IC50 (µM)
Field: numeric (µM). Do not append units.

Inquiry: Form field: IC50 recorded for COc1cc2c(cc1OC)CN(CCCCNC(=O)c1cc(Br)cc(OC)c1OC)CC2 with Sigma non-opioid intracellular receptor 1 (Cavia porcellus) (enter value)
Reply text: 1.89
